Values from ChEMBL document CHEMBL5154896

experimental target: UniProt:P14920
method description: Inhibition of recombinant full length human DAO preincubated with compound for 20 mins measured after 4 hrs by Amplex red and horseradish peroxidase based fluorescence assay
Assign labels as follows, please: 1 (yes) for IC50 below 0.2 µM; 0 (no) for IC50 equal to or exceeding 0.2 µM.

O=c1[nH]cc(C2COc3cc(C(F)(F)F)ccc3S2)[nH]c1=O (stereo unspecified) ... 1 (yes)

Lab note: IC50 threshold 0.2 µM. Does this compound come in strictly under it? `O=c1[nH]cc(CCc2ccc3ncccc3c2)[nH]c1=O`
0 (no)

Input `N#Cc1ccc(SCc2c[nH]c(=O)c(=O)[nH]2)cc1F` ; condition: IC50 strictly below 0.2 µM. Does it hold?
1 (yes)

Lab note: IC50 threshold 0.2 µM. Does this compound come in strictly under it? `N#Cc1[nH]c(=O)c(=O)[nH]c1CCc1ccc(C(F)(F)F)cc1`
0 (no)

IC50 strictly < 0.2 µM for this compound? `O=c1[nH]cc(Cc2ccc(Cl)cc2)[nH]c1=O`
0 (no)

Consider the compound `O=c1[nH]cc(CCc2ccccc2)[nH]c1=O` . Is its IC50 strictly less than 0.2 µM?
0 (no)

Record `O=c1[nH]cc([C@@H]2COc3cc(F)ccc3S2)[nH]c1=O` : is its IC50 strictly below 0.2 µM?
1 (yes)

----------
method description: Brain to plasma permeability coefficient, Kp in C57Bl/6 mouse 2 mg/kg, po or 0.5 mg/kg,iv by LC-MS-MS analysis
Assay type: ADME, organism-based
applied conditions: C57Bl/6, mouse, brain and plasma, read-out: Kp
measure name: Kp
I only need the number, thanks.

Value of Kp reported for the compound `O=c1[nH]c2ccsc2[nH]c1=O` is 0.004

----------
Parameter: IC50. Scope: all listed entries.
experimental target: Adenosine receptor A3 (Homo sapiens)
Sequence (P0DMS8 whole entry): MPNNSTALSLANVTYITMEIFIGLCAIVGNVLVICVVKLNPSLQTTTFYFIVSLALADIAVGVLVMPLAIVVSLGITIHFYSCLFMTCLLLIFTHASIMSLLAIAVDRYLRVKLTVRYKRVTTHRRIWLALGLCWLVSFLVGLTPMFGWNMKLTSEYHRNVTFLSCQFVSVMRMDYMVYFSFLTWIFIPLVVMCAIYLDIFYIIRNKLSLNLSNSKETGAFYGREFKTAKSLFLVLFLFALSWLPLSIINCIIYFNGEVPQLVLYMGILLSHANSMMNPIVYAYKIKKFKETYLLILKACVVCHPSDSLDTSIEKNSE
method description: Inhibition of recombinant human adenosine A3 GPCR incubated for 120 mins by scintillation counting based radiometry assay

Response field IC50 (Adenosine receptor A3 (Homo sapiens)) for item `O=c1[nH]cc(CSc2ccc(C(F)(F)F)cc2)[nH]c1=O` : > 10 µM

// IC50 (Adenosine receptor A3 (Homo sapiens)) for `O=c1[nH]cc(CSc2ccc(C(F)F)cc2)[nH]c1=O` = > 10 µM

----------
experimental target: D-amino-acid oxidase (Homo sapiens)
method description: Inhibition of full length human DAO transfected in CHO-K1 cells incubated for 30 mins by Amplex red and horseradish peroxidase based fluorescence assay
# pEC50 per entry
Quick note: pEC50 means taking -log10 of the concentration in moles per liter.

Some compounds with recorded pEC50:
O=c1[nH]cc(C2COc3ccccc3S2)[nH]c1=O (racemic) ... 5.75
N#Cc1ccc(CCc2c[nH]c(=O)c(=O)[nH]2)cc1F ... 5.72

Given item `O=c1[nH]cc(CCc2ccc(-c3cc(O)n[nH]3)c(F)c2)[nH]c1=O` , the value recorded as its pEC50 is 5.54

pEC50 measured on `N#Cc1ccc(CSc2c[nH]c(=O)c(=O)[nH]2)cc1` = 6.60

# compound `O=c1[nH]cc(CCc2ccc3ncccc3c2)[nH]c1=O` ; its pEC50 = 5.08

pEC50 reading for `O=c1[nH]c(Cl)c(CCc2ccc(C(F)(F)F)cc2)[nH]c1=O` : 6.30

Documented pEC50 of `C[C@@]1(c2c[nH]c(=O)c(=O)[nH]2)COc2cc(S(C)(=O)=O)ccc2S1` : 6.41

----------
method description: Efflux ratio of apparent permeability across basolateral to apical side over apical to basolateral side in MDCK-MDR1 cells
applied conditions: dog
measure name: efflux ratio
Reply with just the number.

The compound `O=c1[nH]cc(CCc2cccc(Cl)c2)[nH]c1=O` showed efflux ratio equal to 0.9

----------
experimental target: D-amino-acid oxidase (Mus musculus)
Sequence (P18894 whole entry): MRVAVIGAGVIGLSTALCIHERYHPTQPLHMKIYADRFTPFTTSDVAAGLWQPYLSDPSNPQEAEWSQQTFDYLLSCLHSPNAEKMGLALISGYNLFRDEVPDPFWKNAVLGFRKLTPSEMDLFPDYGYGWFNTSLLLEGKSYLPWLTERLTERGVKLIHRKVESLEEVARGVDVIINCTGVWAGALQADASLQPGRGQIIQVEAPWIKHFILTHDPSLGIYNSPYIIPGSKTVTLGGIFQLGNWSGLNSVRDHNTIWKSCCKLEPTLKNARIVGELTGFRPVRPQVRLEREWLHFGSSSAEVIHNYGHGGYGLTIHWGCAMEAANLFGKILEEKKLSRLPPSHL
method description: Inhibition of full length mouse DAO transfected with CHO-K1 cells incubated for 30 mins by Amplex red and horseradish peroxidase based fluorescence assay
Listing of recorded pEC50 by entry.
When answering, recall that pEC50 equals minus log10 of the concentration in mol/L, and write that number alone.

Below are worked cases with known answers.
O=c1[nH]cc(SCc2ccc(C(F)F)cc2)[nH]c1=O ... 6.23
C[C@@]1(c2c[nH]c(=O)c(=O)[nH]2)COc2cc(Cl)ccc2S1 ... 7.00

pEC50 measured on `O=c1[nH]cc(CSc2ccc(S(F)(F)(F)(F)F)cc2)[nH]c1=O` = 6.10

Briefly, pEC50 measured for `CS(=O)(=O)c1ccc2c(c1)OC[C@@H](c1c[nH]c(=O)c(=O)[nH]1)S2` : 5.92

Field pEC50 (entry `Cc1n[nH]c2cc(CCc3c[nH]c(=O)c(=O)[nH]3)ccc12` ) reads 5.37

----------
experimental target: D-amino-acid oxidase (Homo sapiens)
method description: Inhibition of full length human DAO transfected in CHO-K1 cells incubated for 30 mins by Amplex red and horseradish peroxidase based fluorescence assay
compounds and their reported pEC50
Schema: pEC50 number; meaning minus log10 of the concentration expressed in molar units.

Take a look at these entries with their results.
O=c1[nH]cc(SCc2ccc(F)c(F)c2)[nH]c1=O ... 6.09
O=c1[nH]cc([C@@H]2COc3cc(F)ccc3S2)[nH]c1=O ... 6.25
N#Cc1ccc(CCc2c[nH]c(=O)c(=O)[nH]2)cc1 ... 5.74
N#Cc1cccc(CSc2c[nH]c(=O)c(=O)[nH]2)c1 ... 5.42
O=c1[nH]cc(SCc2ccc(C(F)F)cc2)[nH]c1=O ... 6.35

Shifting focus to the compound that follows.
Briefly, pEC50 measured for `N#Cc1ccc(SCc2c[nH]c(=O)c(=O)[nH]2)cc1F` : 6.36

----------
experimental target: D-amino-acid oxidase (Homo sapiens, UniProt P14920)
Sequence (P14920 whole entry): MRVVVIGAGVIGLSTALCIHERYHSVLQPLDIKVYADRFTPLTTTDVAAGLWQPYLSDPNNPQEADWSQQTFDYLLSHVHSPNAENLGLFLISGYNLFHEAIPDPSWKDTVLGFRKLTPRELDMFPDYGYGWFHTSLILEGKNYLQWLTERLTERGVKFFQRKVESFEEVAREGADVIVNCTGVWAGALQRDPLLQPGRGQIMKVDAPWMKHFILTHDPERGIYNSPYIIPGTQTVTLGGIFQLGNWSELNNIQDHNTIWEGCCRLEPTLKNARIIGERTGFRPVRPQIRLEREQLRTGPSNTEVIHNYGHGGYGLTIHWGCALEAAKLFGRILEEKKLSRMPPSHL
method description: Inhibition of recombinant full length human DAO preincubated with compound for 20 mins measured after 4 hrs by Amplex red and horseradish peroxidase based fluorescence assay
measure name: IC50 (nM)
Express it in nM; write the number only.

Here is how some compounds turned out for IC50.
CS(=O)(=O)c1ccc(CSc2c[nH]c(=O)c(=O)[nH]2)cc1 ... 90
COc1ccc(CCc2c[nH]c(=O)c(=O)[nH]2)cc1 ... 320
N#Cc1ccc(CCc2c[nH]c(=O)c(=O)[nH]2)cc1 ... 5800
C[C@@]1(c2c[nH]c(=O)c(=O)[nH]2)COc2cc(C#N)ccc2S1 ... 20
C[C@@]1(c2c[nH]c(=O)c(=O)[nH]2)COc2cc(S(C)(=O)=O)ccc2S1 ... 51
O=c1[nH]cc([C@@H]2COc3cc(Cl)ccc3S2)[nH]c1=O ... 21
O=c1[nH]cc(CCc2cccc(Cl)c2)[nH]c1=O ... 190
O=c1[nH]cc(CSc2cnc3cc(Cl)ccc3c2)[nH]c1=O ... 87
N#Cc1ccc(CCc2c[nH]c(=O)c(=O)[nH]2)cc1F ... 180
N#Cc1cccc(CSc2c[nH]c(=O)c(=O)[nH]2)c1 ... 440

Item `CS(=O)(=O)c1ccc2c(c1)OC[C@@H](c1c[nH]c(=O)c(=O)[nH]1)S2` ; assay system D-amino-acid oxidase (Homo sapiens, UniProt P14920); IC50 reported as 25

I looked up `O=c1[nH]c(Cl)c(CCc2ccc(C(F)(F)F)cc2)[nH]c1=O` and its IC50 for D-amino-acid oxidase (Homo sapiens, UniProt P14920) was 1500

Simply: `Cc1[nH]c(=O)c(=O)[nH]c1CCc1ccc(C(F)(F)F)cc1` , D-amino-acid oxidase (Homo sapiens, UniProt P14920), IC50 = 3900

----------
experimental target: D-amino-acid oxidase (Homo sapiens)
method description: Inhibition of full length human DAO transfected in CHO-K1 cells incubated for 30 mins by Amplex red and horseradish peroxidase based fluorescence assay
measure name: EC50 (nM)
Please give a number only; it is taken to be in nM.

N#Cc1[nH]c(=O)c(=O)[nH]c1CCc1ccc(C(F)(F)F)cc1 ... 540
C[C@@]1(c2c[nH]c(=O)c(=O)[nH]2)COc2cc(C#N)ccc2S1 ... 240
O=c1[nH]cc(SCc2ccc(C(F)(F)F)nc2)[nH]c1=O ... 1100

Documented EC50 of `O=c1[nH]cc(SCc2ccc(Cl)cc2)[nH]c1=O` : 400

----------
Quick reference: efflux ratio of the listed items.
method description: Efflux ratio of apparent permeability across basolateral to apical side over apical to basolateral side in MDCK-MDR1 cells
applied conditions: dog
Lab note: record just the number, no unit beside it.

// known answers, use as guide
O=c1[nH]cc(CCc2ccccc2)[nH]c1=O ... 0.4
N#Cc1ccc(CCc2c[nH]c(=O)c(=O)[nH]2)cc1 ... 0.6
O=c1[nH]c2ccsc2[nH]c1=O ... 0.8
O=c1[nH]cc(SCc2ccc(C(F)(F)F)nc2)[nH]c1=O ... 0.4
N#Cc1ccc(CCc2c[nH]c(=O)c(=O)[nH]2)cc1F ... 0.5

Notebook: `O=c1[nH]cc(CCc2ccc(-c3cc(O)n[nH]3)c(F)c2)[nH]c1=O` , efflux ratio read as 0.1

Sure, the documented efflux ratio for `Cc1[nH]c(=O)c(=O)[nH]c1CCc1ccc(C(F)(F)F)cc1` is 2.4

`N#Cc1ccc2c(c1)OC[C@@H](c1c[nH]c(=O)c(=O)[nH]1)S2` yielded efflux ratio of 3.1
